Where do these numbers come from? They come from the supplement of paper PMC12137928.

- Test system: HCT116
- Measurement Setup: 72 h; ICRF193 200 nM
IC50 cell viability for assorted compounds

Asked: For CC(C)Cc1ccc(C(C)C(=O)OCc2ccccn2)cc1 (centres undefined) , what is its reported IC50 cell viability?
Given back: > 45.8 µM

* * *

- Test system: HCT116
- Measurement Setup: 72 h; ICRF193 0 nM
Quantity Name: IC50 cell viability

Recorded results for 3 molecules are shown here.
{"columns": ["Molecule", "Target Or System", "IC50 cell viability"],
 "data": [
  ["CC(=O)Oc1ccccc1C(=O)Nc1ncc([N+](=O)[O-])s1 [Nitazoxanide]", "HCT116", "13 µM"],
  ["C[C@@H]1C[C@H]2[C@@H]3CCC4=CC(=O)C=C[C@]4(C)[C@@]3(Cl)[C@@H](O)C[C@]2(C)[C@@]1(OC(=O)c1ccco1)C(=O)CCl [Mometasone furoate]", "HCT116", "18.3 µM"],
  ["Cc1ccc(Nc2nccc(N(C)c3ccc4c(C)n(C)nc4c3)n2)cc1S(N)(=O)=O", "HCT116", "18.3 µM"]
]}

Now consider a different molecule.
Asked: For CCc1nc(N)nc(N)c1-c1ccc(Cl)cc1 , what is its reported IC50 cell viability?
Given back: 11.6 µM

* * *

IC50 cell viability for assorted compounds
- Test system: HCT116
- Measurement Setup: 72 h; ICRF193 0 nM
Counter-ions that a name gives are not always drawn.

Recorded results for 8 compounds are shown here.
{"columns": ["Compound", "Target Or System", "Observed Result"],
 "data": [
  ["c1ccc([C@H]2CN3CCSC3=N2)cc1 [Levamisole hydrochloride]", "HCT116", "> 45.8 µM"],
  ["CO/N=C1\\C[C@]2(C[C@@H]3C[C@@H](C/C=C(\\C)C[C@@H](C)/C=C/C=C4\\CO[C@@H]5[C@H](O)C(C)=C[C@@H](C(=O)O3)[C@]45O)O2)O[C@H](/C(C)=C/C(C)C)[C@H]1C [Moxidectin]", "HCT116", "20.6 µM"],
  ["COC(=O)[C@H](c1ccccc1Cl)N1CCc2sccc2C1 [Clopidogrel bisulfate]", "HCT116", "18.3 µM"],
  ["O=C(Nc1ccc([N+](=O)[O-])cc1)Nc1ccc([N+](=O)[O-])cc1 [4,4'-Dinitrodiphenylurea]", "HCT116", "> 45.8 µM"],
  ["CC#CCn1c(N2CCC[C@@H](N)C2)nc2c1c(=O)n(Cc1nc(C)c3ccccc3n1)c(=O)n2C [Linagliptin]", "HCT116", "> 45.8 µM"],
  ["C[N+]1(C)CCN(CC(O)(c2ccccc2)C2CCCCC2)CC1 (stereo unspecified) [Hexocyclium]", "HCT116", "> 45.8 µM"],
  ["Cc1cccc(Nc2ccccc2C(=O)O)c1C [Mefenamic acid]", "HCT116", "> 45.8 µM"],
  ["CCCCCCCCCCCCOC(=O)CS(=O)(=O)O [SODIUM LAURYL SULFOACETATE]", "HCT116", "> 45.8 µM"]
]}

Asked: For CC(=O)OCC(=O)[C@@]1(O)[C@H](C)C[C@H]2[C@@H]3CCC4=CC(=O)C=C[C@]4(C)[C@@]3(F)[C@@H](O)C[C@@]21C [Dexamethasone acetate] , what is its reported IC50 cell viability?
Given back: > 45.8 µM

Asked: For NCCc1c[nH]cn1 [Histamine dihydrochloride] , what is its reported IC50 cell viability?
Given back: > 45.8 µM

Asked: For CC(CCc1ccccc1)NC(C)C(O)c1ccc(O)cc1 (stereo unspecified) [Nylidrin] , what is its reported IC50 cell viability?
Given back: > 45.8 µM

Asked: For CC(=O)O[C@H]1CC[C@H]2[C@@H]3CC[C@H]4CC(=O)C=C(C)[C@]4(C)[C@H]3CC[C@]12C [Methenolone (acetate)] , what is its reported IC50 cell viability?
Given back: > 45.8 µM

Asked: For CCCC[C@H](C)C[C@H](O)/C=C/[C@H]1[C@H](O)CC(=O)[C@@H]1CCCC/C=C/C(=O)O [Limaprost] , what is its reported IC50 cell viability?
Given back: 20.6 µM

Asked: For O=C(O)C(=O)Nc1cccc(-c2nnn[nH]2)c1 [Acitazanolast] , what is its reported IC50 cell viability?
Given back: > 45.8 µM

Asked: For COc1cnc(NS(=O)(=O)c2ccc(N)cc2)nc1 [Sulfameter] , what is its reported IC50 cell viability?
Given back: > 45.8 µM

Asked: For COc1cccc(N(C)C(=S)Oc2ccc3c(c2)CCCC3)n1 [Liranaftate] , what is its reported IC50 cell viability?
Given back: > 45.8 µM

* * *

efficacy for assorted molecules
- System: HCT116
- Test Method Notes: efficacy (maximum % inhibition of viability vs DMSO); higher = more cytotoxic
- Measurement Setup: 72 h; ICRF193 200 nM
Structures can show the parent of a compound that is named as a salt.
Report the figure in % without appending any unit label.

Recorded results for 5 molecules are shown here.
{"columns": ["Molecule", "efficacy [%]"],
 "data": [
  ["CN(C)CCCN1c2ccccc2CCc2ccccc21", 40.6],
  ["N[C@@H](CCC(=O)N[C@@H](CS)C(=O)NCC(=O)O)C(=O)O", 79.8],
  ["O=C(NC1CCN(CCCCC2(C(=O)NCC(F)(F)F)c3ccccc3-c3ccccc32)CC1)c1ccccc1-c1ccc(C(F)(F)F)cc1 [Lomitapide]", 115],
  ["CN(C)CCC=C1c2ccccc2CCc2ccccc21 [Amitriptyline hydrochloride]", 51.6],
  ["O=C(N[C@H]1CCS[C@H]2CCC[C@@H](C(=O)O)N2C1=O)[C@@H](S)Cc1ccccc1", 86.5]
]}

Asked: Lookup: efficacy / HCT116 / COC(=O)[C@H]1[C@H]2C[C@@H]3c4[nH]c5ccccc5c4CCN3C[C@H]2C[C@@H](OC(=O)c2cc(OC)c(OC)c(OC)c2)[C@@H]1OC
Given back: 48.2

Asked: Lookup: efficacy / HCT116 / CC1=CC(=C(c2ccc(N)cc2)c2ccc(N)cc2)C=CC1=N
Given back: 92.3

* * *

- Tested on: HCT116
- Measurement Setup: 72 h; ICRF193 200 nM
Structures can show the parent of a compound that is named as a salt.
IC50 cell viability for assorted compounds

{"columns": ["Compound", "Target Or System", "IC50 cell viability"],
 "data": [
  ["COCCCN1CCC(NC(=O)c2cc(Cl)c(N)c3c2OCC3)CC1 [Prucalopride]", "HCT116", "> 45.8 µM"],
  ["CCCCOC(=O)c1ccc(N)cc1 [Butyl 4-aminobenzoate]", "HCT116", "> 45.8 µM"],
  ["CCCCCCCCCCCCCCCCCCCCCCCCCCCCO", "HCT116", "> 45.8 µM"],
  ["CCCCC(CC)COC(=O)C(C#N)=C(c1ccccc1)c1ccccc1 (stereo not drawn)", "HCT116", "> 45.8 µM"]
]}

Asked: For CCC(C(=O)NC(=O)NC(C)=O)c1ccccc1 (stereo not drawn) [Acetylpheneturide] , what is its reported IC50 cell viability?
Given back: > 45.8 µM

Asked: For O=C(O)c1ccc2nc(-c3cc(Cl)cc(Cl)c3)oc2c1 , what is its reported IC50 cell viability?
Given back: > 45.8 µM

Asked: For CC(C)NCC(O)c1ccc(O)c(O)c1 (stereo not drawn) [Isoprenaline hydrochloride] , what is its reported IC50 cell viability?
Given back: > 45.8 µM

Asked: For O=C1CSC2(CCN(CCCN3c4ccccc4Sc4ccc(Cl)cc43)CC2)N1 [Spiclomazine hydrochloride] , what is its reported IC50 cell viability?
Given back: 23.1 µM

Asked: For Cc1ncc(CO)c(CO)c1O [Vitamin B6] , what is its reported IC50 cell viability?
Given back: > 45.8 µM

* * *

- Test system: HCT116
- Measurement Setup: 72 h; ICRF193 200 nM
Quantity Name: IC50 cell viability (µM)
Report the figure in µM without appending any unit label.

{"columns": ["Compound", "IC50 cell viability (µM)"],
 "data": [
  ["CN1CCc2c(c3ccccc3n2Cc2ccccc2)C1 [MEBHYDROLIN]", 11.6]
]}

Now consider a different compound.
Asked: For OCCN1CCN(CC/C=C2/c3ccccc3Sc3ccc(C(F)(F)F)cc32)CC1 [cis-Flupentixol] , what is its reported IC50 cell viability?
Given back: 16.4

* * *

IC50 cell viability for assorted compounds
- Test system: HCT116
- Measurement Setup: 72 h; ICRF193 200 nM
Where a name gives a salt, the structure may show the parent alone.

Recorded results for 10 compounds are shown here.
{"columns": ["Compound", "Quantity Name", "Observed Result"],
 "data": [
  ["NC(=O)CCCCC1CCSS1 (stereo not drawn) [alpha-Lipoic acid amide]", "IC50 cell viability", "> 45.8 µM"],
  ["S=C1SCN(Cc2ccccc2)CN1Cc1ccccc1", "IC50 cell viability", "> 45.8 µM"],
  ["C=C(C)[C@H]1CN[C@H](C(=O)O)[C@H]1CC(=O)O", "IC50 cell viability", "> 45.8 µM"],
  ["O=C(O)C(Cl)(Cl)Cl", "IC50 cell viability", "> 45.8 µM"],
  ["COC1=C(OC)C(=O)C(CCCCCCCCCCO)=C(C)C1=O", "IC50 cell viability", "20.6 µM"],
  ["CC(=O)c1ccc2c(c1)N(CCCN(C)C)c1ccccc1S2 [Acetopromazine maleate]", "IC50 cell viability", "> 45.8 µM"],
  ["CCOP(=O)(OCC)C(C)NC(=O)N(CCCl)N=O (stereo not drawn)", "IC50 cell viability", "> 45.8 µM"],
  ["N=c1ccn2c(n1)O[C@H]1[C@H](O)[C@@H](CO)O[C@H]12 [ANCITABINE HYDROCHLORIDE]", "IC50 cell viability", "0.146 µM"],
  ["Cc1c(F)c(N2CCNC(C)C2)cc2c1c(=O)c(C(=O)O)cn2C1CC1 (stereo not drawn) [Grepafloxacin hydrochloride]", "IC50 cell viability", "> 45.8 µM"],
  ["CC[C@H]1OC(=O)[C@H](C)[C@@H](O[C@H]2C[C@@](C)(OC)[C@@H](O)[C@H](C)O2)[C@H](C)[C@@H](O[C@@H]2O[C@H](C)C[C@H](N(C)C)[C@H]2O)[C@](C)(OC)C[C@@H](C)C(=O)[C@H](C)[C@@H](O)[C@]1(C)O", "IC50 cell viability", "> 45.8 µM"]
]}

Now consider a different compound.
Asked: For NS(=O)(=O)c1ccc(N2CCCCS2(=O)=O)cc1 , what is its reported IC50 cell viability?
Given back: > 45.8 µM
